- method: physchem
- measurementContext: simulated gastric fluid
Answer each item with its documented solubility.

CN1c2ccccc2C(=O)N2CCc3c(n(CCCC(=O)O)c4ccccc34)C21 (stereo not drawn) [compound 5, 4-(Evodiamin-N13-yl)butyric acid] :: 60 µg/mL
CCOC(=O)CCCCn1c2c(c3ccccc31)CCN1C(=O)c3ccccc3N(C)C21 (stereo not drawn) [2-28, N13-(4-(Ethoxycarbonyl)butyl)evodiamine] :: 89.4 µg/mL

Query compound follows.
Qu. Give its solubility value. Item: CN1c2ccccc2C(=O)N2CCc3c(n(CCCCl)c4ccccc34)C21 (stereo not drawn) [2-9, N13-(3-Chloropropyl)evodiamine]
Ans. 60 to 120 µg/mL

---

Answer each item with its documented solubility.
- method: physchem
- measurementContext: fassgf or other biorelevant
Numbers only, in µg/mL.

Known results for compounds:
CN1c2ccccc2C(=O)N2CCc3c(n(CCCC(=O)O)c4ccccc34)C21 (centres unmarked) [compound 5, 4-(Evodiamin-N13-yl)butyric acid] :: 154
CC(C)=CCn1c2c(c3ccccc31)CCN1C(=O)c3ccccc3N(C)C21 (centres unmarked) :: 162
CCCOC(=O)Cn1c2c(c3ccccc31)CCN1C(=O)c3ccccc3N(C)C21 (centres unmarked) :: 132
CN1c2ccccc2C(=O)N2CCc3c(n(CC4CO4)c4ccccc34)C21 (centres unmarked) :: 55.7
CCCCCCCCn1c2c(c3ccccc31)CCN1C(=O)c3ccccc3N(C)C21 (centres unmarked) :: 72.3

Here are 4 compounds. What values of solubility were reported for them?
1. CCCCCn1c2c(c3ccccc31)CCN1C(=O)c3ccccc3N(C)C21 (centres unmarked)
2. CCOC(=O)CCCCn1c2c(c3ccccc31)CCN1C(=O)c3ccccc3N(C)C21 (centres unmarked) [2-28, N13-(4-(Ethoxycarbonyl)butyl)evodiamine]
3. CCOC(=O)CCCn1c2c(c3ccccc31)CCN1C(=O)c3ccccc3N(C)C21 (centres unmarked) [2-23, N13-(3-(Ethoxycarbonyl)propyl)evodiamine]
4. CN1c2ccccc2C(=O)N2CCc3c(n(CCCCl)c4ccccc34)C21 (centres unmarked)

Ans.
1. 322
2. 166
3. 71.9
4. 322

---

- method: physchem
- measurementContext: simulated gastric fluid
valueKind: solubility

Known results for compounds:
CCC(=O)OCCn1c2c(c3ccccc31)CCN1C(=O)c3ccccc3N(C)C21 (stereo not drawn) [2-21, N13-(2-Propionyloxyethyl)evodiamine] :: > 120 µg/mL
COCCn1c2c(c3ccccc31)CCN1C(=O)c3ccccc3N(C)C21 (stereo not drawn) [2-14, N13-(2-Methoxyethyl)evodiamine] :: 15 to 30 µg/mL
CC(C)CCn1c2c(c3ccccc31)CCN1C(=O)c3ccccc3N(C)C21 (stereo not drawn) [2-8, N13-Isopentylevodiamine] :: > 150 µg/mL
CN1c2ccccc2C(=O)N2CCc3c(n(CCO)c4ccccc34)C21 (stereo not drawn) [4-1, N13-(2-Hyroxyethyl)evodiamine] :: > 220 µg/mL
CN1c2ccccc2C(=O)N2CCc3c(n(CC(=O)c4ccccc4)c4ccccc34)C21 (stereo not drawn) [2-13, N13-(Benzonylmethyl)evodiamine] :: 30 to 60 µg/mL

Here are 4 compounds. What values of solubility were reported for them?
1. CCOC(Cn1c2c(c3ccccc31)CCN1C(=O)c3ccccc3N(C)C21)OCC (stereo not drawn) [2-18, N13-(2,2-Diethoxyethyl)evodiamine]
2. CCOC(=O)CCCn1c2c(c3ccccc31)CCN1C(=O)c3ccccc3N(C)C21 (stereo not drawn) [2-23, N13-(3-(Ethoxycarbonyl)propyl)evodiamine]
3. CC(C)=CCn1c2c(c3ccccc31)CCN1C(=O)c3ccccc3N(C)C21 (stereo not drawn) [2-4, N13-(3-Methyl-2-butenyl)evodiamine]
4. CN1c2ccccc2C(=O)N2CCc3c(n(CC=NO)c4ccccc34)C21 (stereo not drawn) [6-1, 2-(Evodiamin-N13-yl)acetaldehyde oxime]

Ans.
1. > 120 µg/mL
2. 30 µg/mL
3. 60 µg/mL
4. 60 µg/mL

---

- method: physchem
- measurementContext: fassgf or other biorelevant
valueKind: solubility

Known results for compounds:
COCCn1c2c(c3ccccc31)CCN1C(=O)c3ccccc3N(C)C21 (centres unmarked) [2-14, N13-(2-Methoxyethyl)evodiamine] :: 41.6 to 83.1 µg/mL
CN1c2ccccc2C(=O)N2CCc3c(n(CC(=O)c4ccccc4)c4ccccc34)C21 (centres unmarked) [2-13, N13-(Benzonylmethyl)evodiamine] :: 73.7 to 147 µg/mL
CCC(=O)OCCn1c2c(c3ccccc31)CCN1C(=O)c3ccccc3N(C)C21 (centres unmarked) [2-21, N13-(2-Propionyloxyethyl)evodiamine] :: > 308 µg/mL
CN1c2ccccc2C(=O)N2CCc3c(n(CCCCCCn4c5c(c6ccccc64)CCN4C(=O)c6ccccc6N(C)C54)c4ccccc34)C21 (centres unmarked) [3-2, N1,6-Bis-(evodiamin-N13-yl)hexane] :: > 320 µg/mL

Query compound follows.
Qu. Give its solubility value. Item: CN1c2ccccc2C(=O)N2CCc3c(n(CCCCCn4c5c(c6ccccc64)CCN4C(=O)c6ccccc6N(C)C54)c4ccccc34)C21 (centres unmarked) [3-1, 1,5-Bis-(evodiamin-N13-yl)pentane]
Ans. > 350 µg/mL
